Molecular target: recombinant human MAO-A (hMAOA) (Homo sapiens)
Sequence (P21397 whole entry): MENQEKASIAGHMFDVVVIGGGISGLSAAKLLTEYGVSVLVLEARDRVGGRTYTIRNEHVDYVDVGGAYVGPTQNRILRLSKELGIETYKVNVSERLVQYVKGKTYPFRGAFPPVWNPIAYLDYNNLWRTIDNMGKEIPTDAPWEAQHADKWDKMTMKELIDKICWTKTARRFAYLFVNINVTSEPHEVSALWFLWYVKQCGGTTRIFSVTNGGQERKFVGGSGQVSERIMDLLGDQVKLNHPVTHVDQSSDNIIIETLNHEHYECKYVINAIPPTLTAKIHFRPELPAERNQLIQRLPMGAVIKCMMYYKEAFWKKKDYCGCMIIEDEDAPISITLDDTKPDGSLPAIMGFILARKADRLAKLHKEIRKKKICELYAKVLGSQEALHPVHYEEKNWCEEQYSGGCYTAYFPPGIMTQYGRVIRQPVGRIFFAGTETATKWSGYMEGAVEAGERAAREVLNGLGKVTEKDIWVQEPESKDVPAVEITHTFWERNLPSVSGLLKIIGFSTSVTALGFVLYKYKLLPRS
Assay: MAO-A inhibition, fluorometric Amplex UltraRed assay
Format: biochemical
Details: means ± SD of three experiments; read-out: MAO-A IC50
Satisfied if IC50 is below 400 nM. Not satisfied if not; exact matches included in Not satisfied.

Worked examples follow.
Query: IC50 under 400 nM? Item: Cc1ccc(C)n1C(Cc1ccc(O)c(O)c1)C(=O)O (centres unmarked)
Reply: Not satisfied

Query: IC50 under 400 nM? Item: "Cc1ccc(C)n1-c1ccc(CC(=O)O)cc1"
Reply: Not satisfied

Query: IC50 under 400 nM? Item: "Cc1ccc(C)n1-c1ccc(C(=O)O)cc1"
Reply: Not satisfied

New cases:
Query: IC50 under 400 nM? Item: "Cc1ccc(C)n1-c1ccc2c(c1)OCO2"
Reply: Not satisfied

Query: IC50 under 400 nM? Item: "Cc1ccc(C)n1-c1ccncc1"
Reply: Not satisfied

Query: IC50 under 400 nM? Item: "Cc1ccc(C)n1CCc1ccccc1"
Reply: Not satisfied

Query: IC50 under 400 nM? Item: "COc1ccc(C)cc1-n1c(C)ccc1C"
Reply: Not satisfied

Query: IC50 under 400 nM? Item: Cc1ccc(C)n1CC(C)c1ccc(O)cc1 (centres unmarked)
Reply: Not satisfied

Query: IC50 under 400 nM? Item: CCC(C)Cn1c(C)ccc1C (centres unmarked)
Reply: Not satisfied

Query: IC50 under 400 nM? Item: "Cc1ccc(C)n1-c1ccc(O)c(C(=O)O)c1"
Reply: Not satisfied

Query: IC50 under 400 nM? Item: "Cc1ccc(C)n1C(C)(C)CO"
Reply: Not satisfied

Query: IC50 under 400 nM? Item: "Cc1cc(-n2c(C)ccc2C)c2ccccc2n1"
Reply: Satisfied

Query: IC50 under 400 nM? Item: Cc1ccc(C)n1C(CO)C(=O)O (centres unmarked)
Reply: Not satisfied

Query: IC50 under 400 nM? Item: "Cc1ccc(C)n1CCc1ccc(O)cc1"
Reply: Not satisfied

Query: IC50 under 400 nM? Item: "Cc1ccc(C)n1CCN1CCOCC1"
Reply: Not satisfied

Query: IC50 under 400 nM? Item: "Cc1ccc(C)n1C1CCN(Cc2ccccc2)CC1"
Reply: Satisfied

Query: IC50 under 400 nM? Item: "Cc1ccc(C)n1CCc1ccc(Cl)cc1"
Reply: Not satisfied

Query: IC50 under 400 nM? Item: Cc1ccc(C)n1C(Cc1ccc(O)cc1)C(=O)O (centres unmarked)
Reply: Not satisfied

Query: IC50 under 400 nM? Item: "Cc1ccc(C)n1-c1ccc(O)cc1"
Reply: Satisfied

Query: IC50 under 400 nM? Item: "Cc1ccc(C)n1-c1ccccc1Br"
Reply: Not satisfied

Query: IC50 under 400 nM? Item: "Cc1ccc(C)n1-c1ccc(C(=O)NCC(=O)O)cc1"
Reply: Not satisfied

Query: IC50 under 400 nM? Item: CCC(C(=O)O)n1c(C)ccc1C (centres unmarked)
Reply: Not satisfied

Query: IC50 under 400 nM? Item: "Cc1ccc(C)n1-c1ccc(Br)cc1"
Reply: Satisfied

Query: IC50 under 400 nM? Item: "Cc1ccc(C)n1-c1ccc(C(=O)O)cc1O"
Reply: Not satisfied

Query: IC50 under 400 nM? Item: Cc1ccc(C)n1CC(O)c1ccc(O)cc1 (centres unmarked)
Reply: Not satisfied

Query: IC50 under 400 nM? Item: Cc1ccc(C)n1C(CS)C(=O)O (centres unmarked)
Reply: Not satisfied
